For each entry below, report its IC50 value.
- target desc: Pantothenate synthetase (Mycobacterium tuberculosis, UniProt P9WIL5)
- Sequence (P9WIL5 whole entry): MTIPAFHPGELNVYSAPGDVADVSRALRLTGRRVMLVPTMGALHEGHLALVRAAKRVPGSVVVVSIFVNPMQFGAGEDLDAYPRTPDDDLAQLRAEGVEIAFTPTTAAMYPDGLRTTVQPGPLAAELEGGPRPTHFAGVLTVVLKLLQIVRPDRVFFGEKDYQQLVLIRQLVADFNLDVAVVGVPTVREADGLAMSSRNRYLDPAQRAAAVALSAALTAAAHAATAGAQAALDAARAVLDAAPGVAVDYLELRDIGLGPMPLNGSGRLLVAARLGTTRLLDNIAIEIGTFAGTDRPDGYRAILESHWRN
One number for each entry, in µM.

Below, each entry is followed by its recorded IC50 result.
Entry Cc1nc2ccccn2c1C(=O)NC1CCCCC1 ; IC50 = 1.99

Entry Cc1nc2ccccn2c1C(=O)NNC(=O)c1ccccc1 ; IC50 = 3.54

Entry Cc1nc2ccccn2c1C(=O)N/N=C/c1ccc(C(F)(F)F)cc1 ; IC50 = 8.18

Entry Cc1nc2ccccn2c1C(=O)Nc1ccc(Cl)cc1 ; IC50 = 2.6

Entry Cc1nc2ccccn2c1C(=O)N/N=C/c1ccc(O)cc1 ; IC50 = 7.49

Entry Cc1ccc(/C=N/NC(=O)c2c(C)nc3ccccn23)cc1 ; IC50 = 7.46

Please go through the list and note IC50 for each compound.
1. Cc1nc2ccccn2c1C(=O)NNC(=O)c1ccc(Cl)cc1Cl
2. COc1ccccc1C(=O)NNC(=O)c1c(C)nc2ccccn12
3. Cc1nc2ccccn2c1C(=O)NNC(=O)c1cccc([N+](=O)[O-])c1
4. Cc1nc2ccccn2c1C(=O)NNC(=O)c1ccco1
5. Cc1ccc2nc(C)c(C(=O)NCc3cccs3)n2c1

Reply:
1. 5.13
2. 8.21
3. 9.2
4. 8.93
5. 8.12

###

For each entry below, report its cytotoxicity at 72 h, 50 µM value.
- measurement description: Cytotoxicity against mouse RAW264.7 cells assessed as inhibition of cell viability at 50 uM after 72 hrs by MTT assay
- Assay type: cell-based
- measurement context: read-out: INH
Answers are plain numbers, in %.

Below, each entry is followed by its recorded cytotoxicity at 72 h, 50 µM result.
Entry Cc1nc2ccccn2c1C(=O)NNC(=O)c1cc([N+](=O)[O-])cc([N+](=O)[O-])c1 ; cytotoxicity at 72 h, 50 µM = 40.6

Entry Cc1nc2ccccn2c1C(=O)N/N=C/c1ccc(O)cc1 ; cytotoxicity at 72 h, 50 µM = 19.4

Please go through the list and note cytotoxicity at 72 h, 50 µM for each compound.
1. Cc1nc2ccccn2c1C(=O)NNC(=O)c1ccc(Cl)cc1Cl
2. COc1ccccc1C(=O)NNC(=O)c1c(C)nc2ccccn12
3. Cc1nc2ccccn2c1C(=O)NNC(=O)c1ccco1

Reply:
20.1
19
16.8

Please go through the list and note cytotoxicity at 72 h, 50 µM for each compound.
1. Cc1nc2ccccn2c1C(=O)NNC(=O)c1cccc2ccccc12
2. Cc1ccc(/C=N/NC(=O)c2c(C)nc3ccccn23)cc1
3. Cc1nc2ccccn2c1C(=O)N/N=C/c1ccc(F)cc1
4. Cc1nc2ccccn2c1C(=O)N/N=C/c1ccc(C(F)(F)F)cc1

Reply:
[28.4, 16.7, 20.9, 24.6]

###

- target desc: Pantothenate synthetase (Mycobacterium tuberculosis)
- Sequence (P9WIL5 whole entry): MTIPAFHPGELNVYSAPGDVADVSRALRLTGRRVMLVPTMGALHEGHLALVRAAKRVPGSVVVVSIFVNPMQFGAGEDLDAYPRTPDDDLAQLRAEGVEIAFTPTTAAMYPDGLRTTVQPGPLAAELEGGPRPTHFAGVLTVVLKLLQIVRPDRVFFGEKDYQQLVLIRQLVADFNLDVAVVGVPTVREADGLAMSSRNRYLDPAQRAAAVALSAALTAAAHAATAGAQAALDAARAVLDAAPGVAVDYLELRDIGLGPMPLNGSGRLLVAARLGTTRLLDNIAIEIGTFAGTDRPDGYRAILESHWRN
outcome measure: IC50 (µM)
Numbers only, in µM.

Below, each entry is followed by its recorded IC50 result.
Entry Cc1nc2ccccn2c1C(=O)NNC(=O)c1cc([N+](=O)[O-])cc([N+](=O)[O-])c1 ; IC50 = 6.48

Entry Cc1nc2ccccn2c1C(=O)NNC(=O)c1cccc2ccccc12 ; IC50 = 1.9

Please go through the list and note IC50 for each compound.
1. Cc1nc2ccccn2c1C(=O)N/N=C/c1ccc(OCc2ccccc2)cc1
2. Cc1nc2ccccn2c1C(=O)NNC(=O)C1CCCCC1

Reply:
1. 5.37
2. 7.7

###

Dear all, this message contains IC50 results, target or system Pantothenate synthetase (Mycobacterium tuberculosis, UniProt P9WIL5).
Numbers only, in µM.

The reported Pantothenate synthetase (Mycobacterium tuberculosis, UniProt P9WIL5) IC50 of Cc1nc2ccccn2c1C(=O)N/N=C/c1ccccc1 is 4.86

The reported Pantothenate synthetase (Mycobacterium tuberculosis, UniProt P9WIL5) IC50 of Cc1nc2ccccn2c1C(=O)NCc1ccco1 is 2.81

Please go through the list and note IC50 for each molecule.
1. Cc1nc2ccccn2c1C(=O)NCc1ccccc1
2. Cc1nc2ccccn2c1C(=O)N/N=C/c1ccc(Br)cc1
3. COc1cc(/C=N/NC(=O)c2c(C)nc3ccccn23)cc(OC)c1OC
4. Cc1nc2ccccn2c1C(=O)N/N=C/c1ccc(F)cc1
5. Cc1ccc(C(=O)NNC(=O)c2c(C)nc3ccccn23)cc1
6. Cc1nc2ccccn2c1C(=O)Nc1ccccc1

Reply:
1: 2.74; 2: 4.43; 3: 7.05; 4: 3.77; 5: 3.35; 6: 12.8

Please go through the list and note IC50 for each molecule.
1. Cc1nc2ccccn2c1C(=O)NCCc1ccccc1
2. Cc1nc2ccccn2c1C(=O)Nc1cccc(C(F)(F)F)c1
3. Cc1nc2ccccn2c1C(=O)Nc1ccc(Br)cc1

Reply:
1: 5.77; 2: 7.01; 3: 6.95

###

- target desc: Pantothenate synthetase (Mycobacterium tuberculosis)
- measurement description: Inhibition of Mycobacterium tuberculosis pantothenate synthetase expressed in Escherichia coli BL21 (DE3) by spectrophotometry
outcome measure: pIC50
One number for each entry, as −log10 of the molar value.

Entry COc1ccc(/C=N/NC(=O)c2c(C)nc3ccccn23)cc1 ; pIC50 = 5.20

Consider the record given below.
Entry Cc1nc2ccccn2c1C(=O)NNC(=O)c1ccc(Oc2ccccc2)cc1 ; pIC50 = 5.14

###

- measurement description: Cytotoxicity against mouse RAW264.7 cells assessed as inhibition of cell viability at 50 uM after 72 hrs by MTT assay
- Assay type: cell-based
- measurement context: read-out: INH
For each entry below, report its cytotoxicity at 72 h, 50 µM value.
Reply with a number, then the unit it belongs to.

Below, each entry is followed by its recorded cytotoxicity at 72 h, 50 µM result.
Entry Cc1nc2ccccn2c1C(=O)NCc1ccco1 ; cytotoxicity at 72 h, 50 µM = 20.7%

Entry Cc1nc2ccccn2c1C(=O)NNC(=O)C1CCCCC1 ; cytotoxicity at 72 h, 50 µM = 31.7%

Consider the record given below.
Entry Cc1nc2ccccn2c1C(=O)NCc1ccccc1 ; cytotoxicity at 72 h, 50 µM = 24.5%
